The reported measurements were obtained from patent US8871753B2.

Molecular target: Recombinant Human Anaplastic Lymphoma Kinase (Homo sapiens)
Construct: purchased Invitrogen, Carlsbad, Calif
Sequence (Q9UM73 19-1620): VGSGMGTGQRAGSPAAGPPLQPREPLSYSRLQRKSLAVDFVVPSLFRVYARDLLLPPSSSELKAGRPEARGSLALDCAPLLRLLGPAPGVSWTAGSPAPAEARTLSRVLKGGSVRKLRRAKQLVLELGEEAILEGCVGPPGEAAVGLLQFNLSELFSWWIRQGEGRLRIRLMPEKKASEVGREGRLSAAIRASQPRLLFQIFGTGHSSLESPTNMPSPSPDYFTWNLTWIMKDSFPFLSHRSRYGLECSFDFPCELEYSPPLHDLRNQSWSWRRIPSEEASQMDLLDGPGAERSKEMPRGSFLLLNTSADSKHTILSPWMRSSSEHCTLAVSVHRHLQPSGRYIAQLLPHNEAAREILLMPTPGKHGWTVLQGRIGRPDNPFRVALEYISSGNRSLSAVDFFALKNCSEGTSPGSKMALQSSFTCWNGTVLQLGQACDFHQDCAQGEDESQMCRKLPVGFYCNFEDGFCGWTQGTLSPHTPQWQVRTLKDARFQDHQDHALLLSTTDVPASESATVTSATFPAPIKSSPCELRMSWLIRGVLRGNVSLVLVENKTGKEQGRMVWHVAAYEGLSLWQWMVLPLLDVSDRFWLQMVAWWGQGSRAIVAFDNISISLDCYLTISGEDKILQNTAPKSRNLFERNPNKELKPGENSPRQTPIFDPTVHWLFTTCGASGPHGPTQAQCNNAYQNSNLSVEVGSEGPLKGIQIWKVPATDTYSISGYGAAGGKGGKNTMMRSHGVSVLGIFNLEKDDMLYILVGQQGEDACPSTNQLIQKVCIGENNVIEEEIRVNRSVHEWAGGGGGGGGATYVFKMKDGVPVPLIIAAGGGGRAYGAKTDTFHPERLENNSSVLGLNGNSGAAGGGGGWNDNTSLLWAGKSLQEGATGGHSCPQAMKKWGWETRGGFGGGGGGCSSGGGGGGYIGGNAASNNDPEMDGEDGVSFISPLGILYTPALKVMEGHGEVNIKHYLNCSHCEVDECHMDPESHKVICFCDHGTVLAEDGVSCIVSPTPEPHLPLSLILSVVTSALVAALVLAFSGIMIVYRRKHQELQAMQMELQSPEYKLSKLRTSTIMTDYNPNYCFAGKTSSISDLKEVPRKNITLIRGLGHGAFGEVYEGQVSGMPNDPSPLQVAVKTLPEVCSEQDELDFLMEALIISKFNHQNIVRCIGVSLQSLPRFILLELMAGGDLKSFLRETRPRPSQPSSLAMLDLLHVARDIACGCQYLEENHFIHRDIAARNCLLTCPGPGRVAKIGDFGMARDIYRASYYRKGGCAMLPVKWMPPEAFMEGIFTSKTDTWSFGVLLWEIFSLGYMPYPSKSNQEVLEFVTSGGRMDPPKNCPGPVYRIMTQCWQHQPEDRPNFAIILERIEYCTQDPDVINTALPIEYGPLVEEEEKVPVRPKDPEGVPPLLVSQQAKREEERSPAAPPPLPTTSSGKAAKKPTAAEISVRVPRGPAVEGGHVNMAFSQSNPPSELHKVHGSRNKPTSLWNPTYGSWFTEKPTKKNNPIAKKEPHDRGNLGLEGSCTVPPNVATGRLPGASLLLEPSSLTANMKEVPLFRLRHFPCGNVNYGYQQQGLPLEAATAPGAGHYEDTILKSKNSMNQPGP
Assay: ALK HTRF kinase assay
Assay type: biochemical
Conditions: compound at 500 nM or 1 mM; 90 μM ATP
Structures can show the parent of a compound that is named as a salt.
REPORTED_METRIC: ALK % of inhibition at a concentration of 500 nM or 1 mM (%)
Give the number; % is assumed, so skip it.

Some compounds with known ALK % of inhibition at a concentration of 500 nM or 1 mM results, for comparison:
O=C(CC1CCNCC1)Nc1ccc2cc1CCc1cccc(c1)Nc1ncc(Cl)c(n1)N2 [Example A46, bis(trifluoroacetate)] = 20
Cc1nonc1C(=O)N1CCC(CC(=O)Nc2ccc3cc2CCc2cncc(c2)Nc2ncc(Cl)c(n2)N3)CC1 [Example A166, bis(trifluoroacetate)] = 32
CC(C)c1cc(C(=O)N2CCC(CC(=O)Nc3ccc4cc3CCc3cncc(c3)Nc3ncc(Cl)c(n3)N4)CC2)no1 [Example A214, bis(trifluoroacetate)] = 15
N#Cc1ccccc1N1CCC(CC(=O)Nc2ccc3cc2CCc2cncc(c2)Nc2ncc(Cl)c(n2)N3)CC1 [Example A220, tris(trifluoroacetate)] = 18
CC(C)(C)OC(=O)N1CCN(C(=O)COc2ccc3cc2CCc2cccc(c2)Nc2ncc(Cl)c(n2)N3)CC1 [Example A17, trifluoroacetate] = 7
N#Cc1ccc(NC(=O)N2CCC(CC(=O)Nc3ccc4cc3CCc3cncc(c3)Nc3ncc(Cl)c(n3)N4)CC2)cc1 [Example A143, bis(trifluoroacetate)] = 63
CCNC(=O)N1CC[C@@H](C(=O)Nc2ccc3cc2CCc2cccc(c2)Nc2ncc(Cl)c(n2)N3)C1 [Example A53, trifluoroacetate] = 35

For the next question, use this compound.
What value of measured ALK % of inhibition at a concentration of 500 nM or 1 mM is listed for Cc1nc(C)c(S(=O)(=O)N2CCC(CC(=O)Nc3ccc4cc3CCc3cncc(c3)Nc3ncc(Cl)c(n3)N4)CC2)s1 [Example A232, bis(trifluoroacetate)] ?
43
